This collection of values is drawn from patent US5646188A.

Tested on: Cultures of Dissociated Neonatal Rat Cerebellum
Assay: Reversal of NMDA Induced Cell Death in cultures of dissociated neonatal rat cerebellum
Type: cell-based
Details: 0.010 μM + NMDA; cell survival minus the NMDA effect (30%)
Method: The cerebellum was aseptically dissociated from 6 or 7-day old rat pups and placed in a 15 ml sterile plastic conical tube containing 3 ml of Dulbecco's modified Eagle's medium (DMEM) with a high glucose concentration ([…]) and 2 mM (v/v) L-glutamine and an antibiotic antimitotic mixture. […] Cells were plated at a density of 200/mm^2 on poly-L-lysine coated surfaces. […] Toxic-dose response was determined for each compound over a range from 0.005-1000 micromole. […]
Decision: PERCENT PROTECTION beneath 20% gives criterion met; PERCENT PROTECTION meeting or exceeding 20% gives criterion not met.

{"compound": "NCCCCNCCCNCCCCNC1CCc2ccccc21 (stereo not drawn)", "group": "criterion met"}
{"compound": "N[C@@H]1CCc2ccccc21 [(R)-1-aminoindan, reference compound]", "group": "criterion met"}
{"compound": "NCCCCNCCCNC1CCc2ccccc21 (stereo not drawn)", "group": "criterion met"}
{"compound": "NCCCCN(CCCCN)[C@H]1CCc2ccccc21 [Compound 2727, (S)-N,N-di(4-amino-n-butyl)-1-aminoindan]", "group": "criterion not met"}
{"compound": "NCCCCN(CCCCN)[C@@H]1CCc2ccccc21 [Compound 2726, (R)-N,N-di(4-amino-n-butyl)-1-aminoindan]", "group": "criterion not met"}
{"compound": "N[C@@H]1C[C@@H](N)c2ccccc21 (relative stereo) [Compound 2716, trans 1,3-diaminoindan]", "group": "criterion met"}
{"compound": "NCCCNCCCCNCCCNC1CCc2ccccc21 (stereo not drawn)", "group": "criterion met"}
{"compound": "NCCCCN(CCCCN)C1CCc2ccccc21 (racemic)", "group": "criterion not met"}
{"compound": "NCCCCN(CCCCN)C1CCCc2ccccc21 (stereo not drawn)", "group": "criterion not met"}
{"compound": "NCCCNCCCCNC1CCc2ccccc21 (stereo not drawn)", "group": "criterion not met"}

Q: # TODO verify PERCENT PROTECTION < 20% strictly for this compound: NCCCCN(CCCN)C1CCc2ccccc21 (stereo not drawn)
Ans: criterion not met

Q: NCCCNC1CCc2ccccc21 (stereo not drawn) , same question.
Ans: criterion not met
